Each recorded value in this set is attributed to patent US20130012466A1.

Assign pIC50 to each entry below.
# System: Hep3B
# experimentDescription: Cytotoxicity assay (cell titer-glo and calcein AM), Hep3B
# experimentalContext: read-out: Cytotoxicity IC50, Hep 3B, CTG; Hep 3B; CTG (cell titer-glo) readout; % error in parentheses
Give only the number. pIC50 is defined as minus log10 of concentration in molar units.

Query string: Record request: pIC50 value, item COc1cccc2c1C(=O)c1c(O)c3c(c(O)c1C2=O)C[C@@](O)(C(=O)CO)C[C@@H]3O[C@H]1C[C@H](N)[C@H](O)[C@H](C)O1
Result string: 6.28

Query string: Record request: pIC50 value, item COc1cc2c(c(OC)c1OC)-c1ccc(OC)c(=O)cc1[C@@H](NC(=O)CN(OC)[C@@H]1O[C@H](CO)[C@@H](O)[C@H](F)[C@H]1O)CC2 [Col33, 3-fluoro-3-deoxy-D-glucoside]
Result string: 5.57

Query string: Record request: pIC50 value, item COc1cc2c(c(OC)c1OC)-c1ccc(OC)c(=O)cc1[C@@H](NC(=O)CN(OC)[C@@H]1O[C@H](CCl)[C@H](O)[C@H](O)[C@H]1O)CC2 [Col41, 6-deoxy-6-chloro-D-galactoside]
Result string: 5.06

Query string: Record request: pIC50 value, item COc1cc2c(c(OC)c1OC)-c1ccc(OC)c(=O)cc1C(NC(=O)CN(OC)C1OCC(O)C(O)C1O)CC2 [Col22, L-riboside]
Result string: 5.61

Query string: Record request: pIC50 value, item COc1cc2c(c(OC)c1OC)-c1ccc(OC)c(=O)cc1[C@@H](NC(=O)CN(OC)[C@@H]1O[C@H](CN=[N+]=[N-])[C@H](O)[C@H](O)[C@H]1O)CC2 [Col43, 6-deoxy-6-azido-D-galactoside]
Result string: 5.28

Query string: Record request: pIC50 value, item COc1cc2c(c(OC)c1OC)-c1ccc(OC)c(=O)cc1[C@@H](NC(=O)CN(OC)[C@@H]1O[C@H](C(=O)O)[C@@H](O)[C@H](O)[C@H]1O)CC2 [Col15, D-glucuronoside]
Result string: 5.48

Query string: Record request: pIC50 value, item CCCCCCCCCC(=O)NC[C@H]1O[C@@H](N(CC(=O)N[C@H]2CCc3cc(OC)c(OC)c(OC)c3-c3ccc(OC)c(=O)cc32)OC)[C@H](O)[C@@H](O)[C@@H]1O [Col59, 6-deoxy-6-N-decanoyl-D-glucosaminoside]
Result string: 5.24

Query string: Record request: pIC50 value, item COc1cc2c(c(OC)c1OC)-c1ccc(OC)c(=O)cc1C(NC(=O)CN(OC)C1OCC(O)C(O)C1O)CC2 [Col7, L-lyxoside]
Result string: 5.31

Query string: Record request: pIC50 value, item COc1cc2c(c(OC)c1OC)-c1ccc(OC)c(=O)cc1[C@@H](NC(=O)CN(OC)[C@@H]1OC[C@@H](O)[C@H](O)[C@@H]1O)CC2 [Col1, D-lyxoside]
Result string: 5.46

Query string: Record request: pIC50 value, item COc1cc2c(c(OC)c1OC)-c1ccc(OC)c(=O)cc1[C@@H](NC(=O)CN(OC)[C@@H]1O[C@H](CO)[C@@H](O)[C@H](O)[C@H]1F)CC2 [Col34, 2-fluoro-2-deoxy-D-glucoside]
Result string: 6.26

Query string: Record request: pIC50 value, item COc1cc2c(c(OC)c1OC)-c1ccc(OC)c(=O)cc1[C@@H](NC(=O)CN(OC)[C@H]1C[C@@H](O)[C@H](O)[C@@H](CO)O1)CC2 [Col16, 2-deoxy-D-glucoside]
Result string: 5.72

Query string: Record request: pIC50 value, item COc1cc2c(c(OC)c1OC)-c1ccc(OC)c(=O)cc1C(NC(=O)CN(OC)C1OC(C)C(O)C(O)C1O)CC2 [Col37, L-rhamnoside]
Result string: 5.08

Query string: Record request: pIC50 value, item COc1cc2c(c(OC)c1OC)-c1ccc(OC)c(=O)cc1[C@@H](NC(=O)CN(OC)[C@@H]1O[C@H](CO)[C@@H](O[C@H]3O[C@H](CO)[C@@H](O)[C@H](O)[C@H]3O)[C@H](O)[C@H]1O)CC2 [Col38, D-maltoside]
Result string: 6.64

Query string: Record request: pIC50 value, item COc1cc2c(c(OC)c1OC)-c1ccc(OC)c(=O)cc1C(NC(=O)CN(OC)C1CC(O)C(O)C(C)O1)CC2 [Col65, D-Digitoxoside]
Result string: 5.77

Query string: Record request: pIC50 value, item COc1cc2c(c(OC)c1OC)-c1ccc(OC)c(=O)cc1[C@@H](NC(=O)CN(OC)[C@@H]1O[C@H](CO)[C@@H](O)C[C@H]1O)CC2 [Col3, 3-deoxy-D-glucoside]
Result string: 5.29

Query string: Record request: pIC50 value, item COc1cc2c(c(OC)c1OC)-c1ccc(OC)c(=O)cc1C(NC(=O)CN(OC)C1OC(COCc3ccccc3)C(OCc3ccccc3)C1OCc1ccccc1)CC2 (stereo not shown)
Result string: 7.33
